test.name: Measurement of solubility of the compound in various solvents
Type: physicochemical
applied.conditions: toluene, room temperature solution heated about 10 secs with a heat gun; 25 parts by weight per 100 parts of solution
Procedure: At this time, the content of each compound in the solvent was 25 parts by weight per 100 parts by weight of total solution. In the following Table 1, when the compound was completely dissolved in the solvent and the solution was transparent, it was indicated by ‘◯’; when the compound was dissolved in the solvent but the solution was opaque, it was indicated by ‘Δ’; and when the compound was not dissolved at all, it was indicated by ‘×’. […]
measurement.kind: Solubility Toluene + Heated

                                   compound             measurement_kind  observed_value
0  C=CC(=O)OCCCOc1ccc2cc(C(=O)Oc3ccc(OC(=O)c4ccc5cc(OCCCOC(=O)C=C)ccc5c4)c([N+](=O)[O-])c3)ccc2c1 [RM-03]  Solubility Toluene + Heated               ∘
1  C=CC(=O)OCCCCCCOc1ccc2cc(C(=O)Oc3ccc(OC(=O)c4ccc5cc(OCCCCCCOC(=O)C=C)ccc5c4)c(S(C)(=O)=O)c3)ccc2c1 [RM-06]  Solubility Toluene + Heated               ∘
2  C=CC(=O)OCCCOc1ccc(C(=O)Oc2ccc(OC(=O)c3ccc(OCCCOC(=O)C=C)cc3)c(C)c2)cc1 [RM257, reference compound]  Solubility Toluene + Heated               ∘
